Where do these numbers come from? They come from the kinase profiling compilation of Christmann-Franck et al. (2016).

- Assay system: INSR (human) (UniProt P06213)
- Sequence (P06213 whole entry, looked up): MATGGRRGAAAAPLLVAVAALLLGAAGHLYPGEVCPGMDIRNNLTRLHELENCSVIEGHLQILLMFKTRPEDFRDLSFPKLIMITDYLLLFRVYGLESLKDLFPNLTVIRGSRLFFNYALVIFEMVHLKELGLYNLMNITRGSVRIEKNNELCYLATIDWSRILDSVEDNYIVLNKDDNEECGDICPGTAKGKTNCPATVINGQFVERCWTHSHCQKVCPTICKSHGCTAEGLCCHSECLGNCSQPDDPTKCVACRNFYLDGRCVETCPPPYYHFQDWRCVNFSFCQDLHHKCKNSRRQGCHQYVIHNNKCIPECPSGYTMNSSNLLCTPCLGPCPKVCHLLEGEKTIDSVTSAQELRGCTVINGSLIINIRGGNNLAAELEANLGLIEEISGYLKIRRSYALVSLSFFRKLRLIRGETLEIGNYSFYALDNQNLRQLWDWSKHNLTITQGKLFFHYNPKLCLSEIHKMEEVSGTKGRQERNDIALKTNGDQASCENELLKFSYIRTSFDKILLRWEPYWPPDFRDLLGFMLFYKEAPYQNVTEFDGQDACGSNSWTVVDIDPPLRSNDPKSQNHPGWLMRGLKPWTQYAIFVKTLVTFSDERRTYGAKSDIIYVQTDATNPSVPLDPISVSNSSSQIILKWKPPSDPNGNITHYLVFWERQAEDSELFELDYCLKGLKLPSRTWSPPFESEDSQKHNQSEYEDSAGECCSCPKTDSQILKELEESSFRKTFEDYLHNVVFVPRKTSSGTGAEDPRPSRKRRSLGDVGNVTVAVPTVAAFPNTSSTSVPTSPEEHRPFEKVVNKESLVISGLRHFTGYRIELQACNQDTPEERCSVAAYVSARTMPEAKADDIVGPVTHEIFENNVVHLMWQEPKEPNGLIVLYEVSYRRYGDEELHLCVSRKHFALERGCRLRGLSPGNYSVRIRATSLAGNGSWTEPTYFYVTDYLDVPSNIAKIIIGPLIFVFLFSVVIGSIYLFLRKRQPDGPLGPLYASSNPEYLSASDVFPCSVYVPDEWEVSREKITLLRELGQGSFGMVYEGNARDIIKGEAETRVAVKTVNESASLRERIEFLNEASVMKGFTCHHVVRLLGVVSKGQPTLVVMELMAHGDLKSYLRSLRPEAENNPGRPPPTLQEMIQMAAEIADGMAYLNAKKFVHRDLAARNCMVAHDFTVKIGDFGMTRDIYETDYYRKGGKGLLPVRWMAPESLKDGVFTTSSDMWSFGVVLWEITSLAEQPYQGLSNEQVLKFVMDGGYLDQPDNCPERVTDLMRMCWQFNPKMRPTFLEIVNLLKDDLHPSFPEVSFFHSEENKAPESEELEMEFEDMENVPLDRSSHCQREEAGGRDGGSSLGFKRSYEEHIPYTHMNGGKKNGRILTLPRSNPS
- Assay context: compound 1.0 µM
Short version: inhibition at least 2% is 1.0, less is 0.0.

{"Molecule": "O=S(=O)(c1cccc2cnccc12)N1CCCNCC1", "Class assignment": 0.0}
{"Molecule": "CS(=O)(=O)CCNCc1ccc(-c2ccc3ncnc(Nc4ccc(OCc5cccc(F)c5)c(Cl)c4)c3c2)o1", "Class assignment": 0.0}
{"Molecule": "CS(=O)c1ccc(-c2nc(-c3ccc(F)cc3)c(-c3ccncc3)[nH]2)cc1 (stereo not given)", "Class assignment": 0.0}
{"Molecule": "CC[C@@H](CO)Nc1nc(NCc2ccccc2)c2ncn(C(C)C)c2n1", "Class assignment": 0.0}
{"Molecule": "C#Cc1cccc(Nc2ncnc3cc(OCCOC)c(OCCOC)cc23)c1", "Class assignment": 1.0}

----------
- Assay system: PRKACA (human)
- Assay context: compound 1.0 µM
Entries annotated with measured inhibition
Attribute measured: inhibition (%)

{"Compound": "CS(=O)c1ccc(-c2nc(-c3ccc(F)cc3)c(-c3ccncc3)[nH]2)cc1 (stereo unspecified)", "Unit spec": "%", "Assay result": 18.4}
{"Compound": "O=C1NCCc2[nH]c(-c3ccnc(-c4ccccc4F)c3)cc21", "Unit spec": "%", "Assay result": 4.3}
{"Compound": "Cc1ccc(-c2nn(C(C)(C)C)c3ncnc(N)c23)cc1", "Unit spec": "%", "Assay result": 29.2}
{"Compound": "CS(=O)(=O)CCNCc1ccc(-c2ccc3ncnc(Nc4ccc(OCc5cccc(F)c5)c(Cl)c4)c3c2)o1", "Unit spec": "%", "Assay result": 0}
{"Compound": "C#Cc1cccc(Nc2ncnc3cc(OCCOC)c(OCCOC)cc23)c1", "Unit spec": "%", "Assay result": 0.1}
{"Compound": "CC[C@@H](CO)Nc1nc(NCc2ccccc2)c2ncn(C(C)C)c2n1", "Unit spec": "%", "Assay result": 5.58}

----------
- Assay system: MET (human)
- Assay context: compound 1.0 µM
Attribute measured: inhibition (%)

{"Compound": "CS(=O)(=O)CCNCc1ccc(-c2ccc3ncnc(Nc4ccc(OCc5cccc(F)c5)c(Cl)c4)c3c2)o1", "Assay result": 0}
{"Compound": "CC[C@@H](CO)Nc1nc(NCc2ccccc2)c2ncn(C(C)C)c2n1", "Assay result": 0}
{"Compound": "O=C1NCCc2[nH]c(-c3ccnc(-c4ccccc4F)c3)cc21", "Assay result": 30.4}
{"Compound": "C#Cc1cccc(Nc2ncnc3cc(OCCOC)c(OCCOC)cc23)c1", "Assay result": 19.4}
{"Compound": "Cc1ccc(-c2nn(C(C)(C)C)c3ncnc(N)c23)cc1", "Assay result": 11.3}
{"Compound": "O=S(=O)(c1cccc2cnccc12)N1CCCNCC1", "Assay result": 0}
{"Compound": "CS(=O)c1ccc(-c2nc(-c3ccc(F)cc3)c(-c3ccncc3)[nH]2)cc1 (configuration not stated)", "Assay result": 0}
